System: TO-3-N3 (biotin conjugate)
assay_name: pull-down binding Z-score (relative to library population); higher = stronger binding
protocol_conditions: RNA library: Library-2
recorded_metric: pull-down binding Z-score
// return a plain number; no unit text

// field: pull-down binding Z-score; key: GGGUGGGUGGGUGGGUGGGUGGGUGGGUGGGU [G4_r(GGGU)8] ; value = 9.08

Record GCCGAAUACCAUAAUGAAUCUGGC [SHAPE_invitro_SARS-CoV-2_Motif_29] . Reported pull-down binding Z-score: -0.597

Entry CUGCAGAGACGAGGCCUGUAG [hsa-mir-5682] — recorded pull-down binding Z-score = 0.688

----------
Test system: TO-3-N3 (biotin conjugate)
assay_name: pull-down binding Z-score (relative to library population); higher = stronger binding
protocol_conditions: RNA library: Library-2
Class MET: pull-down binding Z-score at least -0.02. Class NOT MET: pull-down binding Z-score below -0.02.

Worked set:
>>> category_label("CAGGCUGUGGCUCUCUGAAAGUC [hsa-mir-148b]")
"MET"
>>> category_label("GGCCAUCUGCUAUUCGUCCACCAACCUGACUUGAUCC [hsa-mir-7111]")
"NOT MET"
>>> category_label("UUUGCCAUUACUUUCAGUAGCAAA [hsa-mir-548c]")
"NOT MET"
>>> category_label("GGAUAAGAAUCAGUCAC [hsa-mir-217]")
"NOT MET"
>>> category_label("CCAAGCUUAGUUUGG [hsa-mir-1302-11_1302-10_1302-3_1302-2_1302-9]")
"MET"

Could you now consider this next sequence?
Prompt line: Identify whether the reported pull-down binding Z-score of the following sequence is -0.02 or greater: "ACAGUCUGUACCGUCUGCGGUAUGUGGAAAGGUUAUGGCUGU"
Response line: NOT MET

----------
System: TO-N3 (biotin conjugate)
assay_name: pull-down binding Z-score (relative to library population); higher = stronger binding
protocol_conditions: RNA library: Library-2
Threshold rule: pull-down binding Z-score greater than or equal to 0.3 is label 1; below that, label 0.

>>> category_label("CUCAGUCCAAGAUGGUAUUUCUACUACCUAGGAACUGGG [SHAPE_invivo_SARS-CoV-2_Motif_544]")
"label 0"
>>> category_label("CAGCUACACAAGCUG [hsa-mir-631]")
"label 0"
>>> category_label("CUAGUUGUGAUGCAAUCAUGACUAG")
"label 0"

Prompt line: hey, is pull-down binding Z-score for this one >= 0.3? CUGCAGAGACGAGGCCUGUAG [hsa-mir-5682]
Response line: label 1

Prompt line: Evaluate GCUAAAGAUACUACUGAAGCCUUUGAAAAAAUGGUUUCACUACUUUCUGUUUUGC [SHAPE_invitro_SARS-CoV-2_Motif_217] : pull-down binding Z-score at minimum 0.3?
Response line: label 0

Prompt line: Please tell me: is the sequence UCUGCAGGUUCGCACUGAUGCCUGCUCG [hsa-mir-6726] at or over 0.3 in terms of pull-down binding Z-score?
Response line: label 1

Prompt line: // inclusive: pull-down binding Z-score at least 0.3? input: GAGCCCUUGCACACCACCAGCCUC [hsa-mir-6845]
Response line: label 1

Prompt line: Test whether the sequence GUGGCUUGUGGCUGAGUGUCACGCUGC [hsa-mir-6068] records pull-down binding Z-score of 0.3 or higher.
Response line: label 0

Prompt line: Does GCGCUGCCAGAAACUGGCUUGAGCGC [bulge-UUG] have a reported pull-down binding Z-score of at least 0.3?
Response line: label 1

Where do the numbers come from? From the supplement of paper PMC11865577.
